# method.summary: Pharmacokinetics of 25HC3S in alcoholic hepatitis patients (Phase 2a, IV infusion)
# Format: in vivo, human
# condition.context: human, plasma, iv, 90 mg, Moderate AH, cohort 2A, 90 mg IV infusion, N=3
property.label: AUC(0-inf) (ng·h/mL)
One number for each entry, in ng·h/mL.

What measured AUC(0-inf) goes with C[C@H](CCCC(C)(C)O)[C@H]1CC[C@H]2[C@@H]3CC=C4C[C@@H](OS(=O)(=O)O)CC[C@]4(C)[C@H]3CC[C@]12C [25HC3S, 5-cholesten-3,25-diol, 3-sulfate] ?
14300

---

# method.summary: Pharmacokinetics of 25HC3S in alcoholic hepatitis patients (Phase 2a, IV infusion)
# Assay type: in vivo, human
# condition.context: human, plasma, iv, 150 mg, Severe AH, cohort 3B, 150 mg IV infusion, N=4
property.label: Cmax

What measured Cmax goes with C[C@H](CCCC(C)(C)O)[C@H]1CC[C@H]2[C@@H]3CC=C4C[C@@H](OS(=O)(=O)O)CC[C@]4(C)[C@H]3CC[C@]12C [25HC3S, 5-cholesten-3,25-diol, 3-sulfate] ?
6820 ng/mL

---

# method.summary: Pharmacokinetics of 25HC3S in alcoholic hepatitis patients (Phase 2a, IV infusion)
# Assay type: in vivo, human
# condition.context: human, plasma, iv, 90 mg, Moderate AH, cohort 2A, 90 mg IV infusion, N=3
property.label: Tmax (h)
Answers are plain numbers, in h.

What measured Tmax goes with C[C@H](CCCC(C)(C)O)[C@H]1CC[C@H]2[C@@H]3CC=C4C[C@@H](OS(=O)(=O)O)CC[C@]4(C)[C@H]3CC[C@]12C [25HC3S, 5-cholesten-3,25-diol, 3-sulfate] ?
2

---

# method.summary: Pharmacokinetics of 25HC3S in alcoholic hepatitis patients (Phase 2a, IV infusion)
# Type: in vivo, human
# condition.context: human, plasma, iv, 150 mg, Severe AH, cohort 3B, 150 mg IV infusion, N=4; read-out: CL (converted)
property.label: clearance (mL/min)
Numbers only, in mL/min.

What measured clearance goes with C[C@H](CCCC(C)(C)O)[C@H]1CC[C@H]2[C@@H]3CC=C4C[C@@H](OS(=O)(=O)O)CC[C@]4(C)[C@H]3CC[C@]12C [25HC3S, 5-cholesten-3,25-diol, 3-sulfate] ?
96.7

---

# method.summary: Pharmacokinetics of 25HC3S in alcoholic hepatitis patients (Phase 2a, IV infusion)
# Assay type: in vivo, human
# condition.context: human, plasma, iv, 30 mg, Severe AH, cohort 1B, 30 mg IV infusion, N=4
property.label: AUC(0-inf) (µg·h/mL)
One number for each entry, in µg·h/mL.

What measured AUC(0-inf) goes with C[C@H](CCCC(C)(C)O)[C@H]1CC[C@H]2[C@@H]3CC=C4C[C@@H](OS(=O)(=O)O)CC[C@]4(C)[C@H]3CC[C@]12C [25HC3S, 5-cholesten-3,25-diol, 3-sulfate] ?
7.72

---

# method.summary: Pharmacokinetics of 25HC3S in alcoholic hepatitis patients (Phase 2a, IV infusion)
# Format: in vivo, human
# condition.context: human, plasma, iv, 30 mg, Severe AH, cohort 1B, 30 mg IV infusion, N=4
# Procedure: All patients received IV infused 25HC3S (at 30, 90, or 150 mg) on Day 1 and Day 4 (if still hospitalized), and were followed for 28-days. […] After completing the dosing, a Dose Escalation Committee (DEC) reviewed safety, tolerability and pharmacokinetic (PK) data from all 4 patients and determined that it was safe to move forward to dose 4 severe AH patients (Part B) at the same dose level, 30 mg, as well as escalating the dose level to 90 mg in moderate patients (Part A). […]
property.label: Tmax (h)
Give bare numbers, in h.

What measured Tmax goes with C[C@H](CCCC(C)(C)O)[C@H]1CC[C@H]2[C@@H]3CC=C4C[C@@H](OS(=O)(=O)O)CC[C@]4(C)[C@H]3CC[C@]12C [25HC3S, 5-cholesten-3,25-diol, 3-sulfate] ?
1.8
